Target: T1, monomeric HLA-A2:NY-ESO-1(156-165) (V at position 165) peptide complex, 2906
T1 construct: also called soluble HLA-A2:NY-ESO-1 peptide complex
Assay: SPR, 37 C, antibody captured, monomeric complex injected
Assignment: determine reported t½ for the given binders.
The answer is to be given in min; state only the numeric part.

For reference, reported t½ for mAb28037P2 (antibody, human IgG4 S228P, kappa, V domains shown) VH: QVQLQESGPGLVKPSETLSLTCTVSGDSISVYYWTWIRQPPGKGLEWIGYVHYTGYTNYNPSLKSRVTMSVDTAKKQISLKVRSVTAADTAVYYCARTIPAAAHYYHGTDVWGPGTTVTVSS VL: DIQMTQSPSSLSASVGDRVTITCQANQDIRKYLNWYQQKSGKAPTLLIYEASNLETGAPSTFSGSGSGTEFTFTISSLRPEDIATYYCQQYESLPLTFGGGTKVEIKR stands at 6.3

The binder listed as mAb28042P (antibody, human IgG4 S228P, kappa, V domains shown) VH: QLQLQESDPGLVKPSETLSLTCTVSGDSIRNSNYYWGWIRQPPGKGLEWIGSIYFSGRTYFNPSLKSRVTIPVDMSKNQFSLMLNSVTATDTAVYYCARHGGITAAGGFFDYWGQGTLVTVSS VL: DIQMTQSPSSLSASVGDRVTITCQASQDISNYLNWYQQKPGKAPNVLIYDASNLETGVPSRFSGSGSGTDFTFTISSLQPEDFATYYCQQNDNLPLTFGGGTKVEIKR has a reported t½ of 9.9

Briefly, t½ measured for mAb28105P (antibody, human IgG4 S228P, kappa, V domains shown) VH: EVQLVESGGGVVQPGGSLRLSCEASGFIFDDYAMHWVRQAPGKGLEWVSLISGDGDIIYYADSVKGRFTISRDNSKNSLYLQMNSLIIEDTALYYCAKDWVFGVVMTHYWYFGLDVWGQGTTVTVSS VL: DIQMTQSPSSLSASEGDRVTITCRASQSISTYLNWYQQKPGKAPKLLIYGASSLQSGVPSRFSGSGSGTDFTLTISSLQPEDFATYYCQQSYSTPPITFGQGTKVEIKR : 21.3

Value of t½ reported for the binder mAb28128P (antibody, human IgG4 S228P, kappa, V domains shown) VH: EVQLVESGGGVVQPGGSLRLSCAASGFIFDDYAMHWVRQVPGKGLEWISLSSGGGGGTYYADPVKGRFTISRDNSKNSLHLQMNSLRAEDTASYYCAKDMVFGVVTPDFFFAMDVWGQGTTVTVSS VL: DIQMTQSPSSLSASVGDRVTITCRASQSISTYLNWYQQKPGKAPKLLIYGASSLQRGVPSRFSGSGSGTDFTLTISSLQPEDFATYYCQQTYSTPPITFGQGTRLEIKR is 26.2
